Molecular target: HLA-A*69:01
Test: IEDB peptide-MHC binding, purified MHC/direct/fluorescence; filed as Kd, often an IC50 or EC50 that approximates it; bounds were set here for any values at or beyond the usual limits of such assays
Conditions: source organism: Rhizobium wenxiniae

# Query sequence, Kd
measured = [
    ("FHLRSRFAF", "≥ 20 µM"),
]

----------
Molecular target: HLA-B*51:01
Assay: IEDB peptide-MHC binding, purified MHC/competitive/fluorescence; filed as Kd, often an IC50 or EC50 that approximates it; bounds were set here for any values at or beyond the usual limits of such assays
Settings: source organism: Orthohantavirus sinnombreense
pKd: −log10 of the molar value.

# Query sequence, Subject of test, pKd
records = [
    ("LVTARQKLK", "HLA-B*51:01", "≤ 4.70"),
]

Where these numbers come from: the Immune Epitope Database (IEDB)
